Biological target: human DDC (Homo sapiens)
Construct: made in house
Sequence (P20711 whole entry): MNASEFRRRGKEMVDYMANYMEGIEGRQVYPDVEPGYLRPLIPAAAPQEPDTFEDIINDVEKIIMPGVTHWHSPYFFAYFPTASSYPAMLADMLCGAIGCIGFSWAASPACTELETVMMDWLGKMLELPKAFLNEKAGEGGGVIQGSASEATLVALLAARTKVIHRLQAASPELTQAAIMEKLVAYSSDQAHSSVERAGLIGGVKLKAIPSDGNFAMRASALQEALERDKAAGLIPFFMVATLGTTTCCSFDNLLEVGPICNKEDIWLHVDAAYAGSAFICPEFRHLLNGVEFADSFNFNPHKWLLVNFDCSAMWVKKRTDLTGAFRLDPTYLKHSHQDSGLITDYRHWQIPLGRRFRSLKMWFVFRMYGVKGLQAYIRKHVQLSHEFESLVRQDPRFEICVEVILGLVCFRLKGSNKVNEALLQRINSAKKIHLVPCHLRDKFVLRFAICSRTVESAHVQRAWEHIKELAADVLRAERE
Assay: Assay of the inhibitory activity: spectrophotometric measurement of dopamine production by DDC
Type: biochemical
Conditions: binding energy per unit of mass, from Ki and molecular weight in kDa
List of BE (binding efficiency) values.

>  <mol>
Oc1ccc(/C=N/n2c(S)nnc2-c2ccc(Cl)cc2Cl)cc1O

>  <tested.target>
human DDC (Homo sapiens)

>  <BE (binding efficiency)>
12.9

$$$$
>  <mol>
O=C(O)c1ccccc1NS(=O)(=O)c1ccc2[nH]c(=O)[nH]c2c1

>  <tested.target>
human DDC (Homo sapiens)

>  <BE (binding efficiency)>
12.7

$$$$
>  <mol>
Oc1ccc(/C=N/n2c(S)nnc2-c2ccccc2)cc1O

>  <tested.target>
human DDC (Homo sapiens)

>  <BE (binding efficiency)>
18.4

$$$$
>  <mol>
O=S(=O)(c1ccc2nnn(O)c2c1)N1CCCCC1

>  <tested.target>
human DDC (Homo sapiens)

>  <BE (binding efficiency)>
12.1

$$$$
>  <mol>
Oc1ccc(/C=N/n2c(S)nnc2-c2ccc(Cl)cc2Cl)cc1

>  <tested.target>
human DDC (Homo sapiens)

>  <BE (binding efficiency)>
11.5

$$$$
>  <mol>
Oc1ccc(C=Nn2c(S)nnc2-c2ccc(Cl)cc2)c(O)c1

>  <tested.target>
human DDC (Homo sapiens)

>  <BE (binding efficiency)>
12.1

$$$$
>  <mol>
Oc1ccc(/C=N/n2c(S)nnc2-c2ccc(F)cc2)cc1O

>  <tested.target>
human DDC (Homo sapiens)

>  <BE (binding efficiency)>
15.8

$$$$
>  <mol>
Oc1cccc(/C=N/n2c(S)nnc2-c2ccccc2)c1O

>  <tested.target>
human DDC (Homo sapiens)

>  <BE (binding efficiency)>
16.8

$$$$
>  <mol>
Oc1ccc(/C=N/n2c(S)nnc2-c2ccccc2Cl)cc1O

>  <tested.target>
human DDC (Homo sapiens)

>  <BE (binding efficiency)>
15.7

$$$$
>  <mol>
Oc1ccc(/C=N/n2c(S)nnc2-c2ccc(Cl)cc2)cc1O

>  <tested.target>
human DDC (Homo sapiens)

>  <BE (binding efficiency)>
16.3

$$$$
>  <mol>
Oc1cccc(/C=N/n2c(S)nnc2-c2ccc(Cl)cc2)c1

>  <tested.target>
human DDC (Homo sapiens)

>  <BE (binding efficiency)>
11.9

$$$$
>  <mol>
Oc1ccccc1/C=N/n1c(S)nnc1-c1ccccc1

>  <tested.target>
human DDC (Homo sapiens)

>  <BE (binding efficiency)>
15.1

$$$$
>  <mol>
Oc1cccc(/C=N/n2c(S)nnc2-c2ccccc2Cl)c1

>  <tested.target>
human DDC (Homo sapiens)

>  <BE (binding efficiency)>
14.7

$$$$
